# Study System: p53 Y220C mutant protein (amino acid residues 94-293) (Homo sapiens, UniProt P04637, Y220C)
# Construct: p53 Y220C mutant protein (amino acid residues 94-293)
# Assay Procedure: Thermal Shift Assay (TSA), dTM
# Format: binding
# Experimental Context: thermal shift, 100 uM compound; read-out: TSA P53 Y220C dTM (100 uM)
Counter-ions that a name gives are not always drawn.
Kindly supply the reported ΔTm at 100 µM values for the records listed here.

Value sought for every listed compound: ΔTm at 100 µM.
1. CNC(=O)c1ccc(NCC#Cc2nc3c(N[C@H]4CCc5ncnn5C4)cccn3c2SC(F)(F)F)c(OC)c1 (stereo in doubt) [Example 189]
2. CNC(=O)c1ccc(NCC#Cc2nc3c(N[C@@H]4CCN(C)C[C@@H]4F)cc(F)cn3c2CC(F)(F)F)c(OC)c1 [Example 99, formic acid salt]
3. CNC(=O)c1ccc(NCC#Cc2nc3c(N[C@@H]4CCN(C)C[C@@H]4F)cccn3c2SC(F)(F)F)cc1 [Example 163]
4. CNC(=O)c1ccc(NCC#Cc2nc3c(N[C@@H]4CCN(C)C[C@@H]4F)cccn3c2CC(F)(F)F)c(OC(F)F)c1 [Example 60]
5. CNC(=O)c1ccc(NCC#Cc2nc3c(N[C@H]4CN(C)CC[C@@H]4F)cccn3c2SC(F)(F)F)c(OC)c1 [Example 147]
6. CNC(=O)c1ccc(C)c(NCC#Cc2nc3c(N[C@@H]4CCN(C)C[C@@H]4F)cccn3c2SC(F)(F)F)c1 [Example 160]

A)
1. 5 to 10 °C
2. ≥ 10 °C
3. ≥ 10 °C
4. ≥ 10 °C
5. ≥ 10 °C
6. ≥ 10 °C

###

# Test system: H1299 p53 Y220C
# Assay Procedure: Cell Proliferation Assay (CellTiter-Glo, CTG), H1299 p53 Y220C (NClH1299-inducible p53 Y220C)
# Type: cell-based
# Experimental Context: Homo sapiens, NCI-H1299, 120 h, CellTiter-Glo, H1299 p53 Y220C, 5 days
# Description: Inducible p53 Y220C and R273H constructs (Tet-One inducible expression system; Takara) were stably expressed in NClH1299 cells by lentiviral transduction. NUGC3, A549, BxPC3, T3M4, HuH7, HCC2935, MFE296, NClH1299, NClH1299-inducible p53 Y220C, and NClH1299-inducible p53 R273H cell lines were used for cell proliferation assay. […] The luminescent signal was measured by PheraStar microplate reader and IC50 was calculated.
pIC50: −log10 of the molar value.
Reported Endpoint: pIC50

Value sought for every listed molecule: pIC50.
1. COc1cc(S(=O)(=O)C(C)C)ccc1NCC#Cc1nc2c(N[C@@H]3CCN(C)C[C@@H]3F)cccn2c1SC(F)(F)F [Example 78]
2. CNC(=O)c1ccc(NCC#Cc2nc3c(N[C@@H]4CCOC[C@@H]4F)cccn3c2SC(F)(F)F)c(OC)c1 [Example 101]
3. COc1cc(S(=O)(=O)C(C)C)ccc1NCC#Cc1nc2c(N[C@@H]3CCN(C)C[C@@H]3F)cccn2c1CC(F)(F)F [Example 77]
4. CNC(=O)c1ccc(NCC#Cc2nc3c(N[C@H]4CCN(C)CC4(F)F)cccn3c2CC(F)(F)F)c(OC)c1 (single isomer, unassigned) [Example 38]
5. CCNC(=O)c1ccc(NCC#Cc2nc3c(N[C@@H]4CCN(C)C[C@@H]4F)cccn3c2CC(F)(F)F)c(OC)c1 [Example 47]
6. COc1cc(C(=O)NCCN(C)C)ccc1NCC#Cc1nc2c(N[C@@H]3CCOC[C@@H]3F)cccn2c1SC(F)(F)F [Example 221]

A)
["> 6.12", "> 6.12", "> 6.12", "< 5.52", "5.52 to 5.82", "> 6.12"]

###

Kindly supply the reported AC50 values for the records listed here.
# Study System: p53 Y220C (Homo sapiens, UniProt P04637, Y220C)
# Assay Procedure: Luciferase Reporter Assay (Luc), p53 response element, NClH1299 cells with inducible p53 Y220C
# Type: cell-based
# Experimental Context: AC50; luciferase reporter, NClH1299 inducible p53 Y220C, 6 hour; read-out: Luc P53 Y220C AC50

Value sought for every listed compound: AC50.
1. CNC(=O)c1cnc(OC)c(NCC#Cc2nc3c(N[C@H]4C[C@@H]5CC[C@@H](N5)[C@H]4F)cccn3c2SC(F)(F)F)c1 [Example 267]
2. COc1cc(S(C)(=O)=O)ccc1NCC#Cc1cc2c(N[C@@H]3CCN(C)C[C@@H]3F)nccn2c1SC(F)(F)F [Example 342]
3. COc1cc(P(C)(C)=O)ccc1NCC#Cc1cc2c(N[C@@H]3CCN(C)C[C@@H]3F)cccn2c1SC(F)F [Example 349]

A)
1. < 750 nM
2. < 750 nM
3. < 750 nM

Value sought for every listed compound: AC50.
1. CNC(=O)c1ccc(OC)c(NCC#Cc2cn3c(N[C@@H]4CCNC[C@@H]4F)cccc3c2SC(F)(F)F)c1 [Example 381]
2. COc1cc(S(C)(=O)=O)ccc1NCC#Cc1nn2c(N[C@@H]3CCN(C)C[C@@H]3F)cccc2c1SC(F)(F)F [Example 363]
3. CNC(=O)c1cnc(OC)c(NCC#Cc2nc3c(N[C@@H]4CNC[C@@H]4F)cccn3c2SC(F)(F)F)c1 [Example 305]
4. CNC(=O)c1cc(F)c(OC)c(NCC#Cc2nc3c(N[C@@H]4CCN(C)C[C@@H]4F)nccn3c2SC(F)(F)F)c1 [Example 347]
5. CCNC(=O)c1ccc(OC)c(NCC#Cc2nc3c(N[C@@H]4CCN(C)C[C@@H]4F)nccn3c2SC(F)(F)F)c1 [Example 309]

A)
["< 750 nM", "< 750 nM", "< 750 nM", "< 750 nM", "< 750 nM"]

Value sought for every listed compound: AC50.
1. CN1CC[C@@H](Nc2cccn3c(SC(F)(F)F)c(C#CCNc4ccc(P(C)(C)=O)nn4)cc23)[C@@H](F)C1 [Example 429]
2. CNC(=O)c1cc(F)c(OC)c(NCC#Cc2nc3c(N[C@@H]4CCN(C)C[C@@H]4F)cccn3c2SC(F)(F)F)c1 [Example 303]
3. CNC(=O)c1ccc(NCC#Cc2nc3c(NC4CCS(=O)(=O)C4)cccn3c2SC(F)(F)F)c(OC)c1 (single isomer, unassigned) [Example 322]
4. COc1cc(C(=O)NCC2(O)CC2)ccc1NCC#Cc1cc2c(N[C@@H]3CCN(C)C[C@@H]3F)cccn2c1SC(F)(F)F [Example 419]
5. CNC(=O)c1ccc(NCC#Cc2nc3c(N[C@@H]4C[C@@H]5COC[C@H]([C@@H]4F)N5C)cccn3c2SC(F)(F)F)c(OC)c1 [Example 283]

A)
< 750 nM
< 750 nM
750 to 1500 nM
< 750 nM
< 750 nM

###

# Study System: p53 Y220C mutant protein (amino acid residues 94-293) (Homo sapiens, UniProt P04637, Y220C)
# Construct: p53 Y220C mutant protein (amino acid residues 94-293)
# Assay Procedure: Thermal Shift Assay (TSA), dTM
# Type: binding
# Experimental Context: thermal shift, 100 uM compound; read-out: TSA P53 Y220C dTM (100 uM)
Kindly supply the reported ΔTm at 100 µM values for the records listed here.

Value sought for every listed compound: ΔTm at 100 µM.
1. COc1cc(S(=O)(=O)C(C)C)ccc1NCC#Cc1nc2c(N[C@@H]3CCN(C)C[C@@H]3F)cccn2c1SC(F)(F)F [Example 78]
2. CNC(=O)c1ccc(NCC#Cc2nc3c(N[C@@H]4CCN(C)C[C@@H]4F)cccn3c2C2CC2)c(OC)c1 [Example 29]
3. CNC(=O)c1ccc(NCC#Cc2nc3c(NC4CCN(C)CC4)cc(NC(=O)OC(C)(C)C)cn3c2CC(F)(F)F)c(OC)c1 [Example 39]

A)
1. ≥ 10 °C
2. 5 to 10 °C
3. 1 to 5 °C

###

# Study System: p53 Y220C (Homo sapiens, UniProt P04637, Y220C)
# Assay Procedure: Luciferase Reporter Assay (Luc), p53 response element, NClH1299 cells with inducible p53 Y220C
# Type: cell-based
# Experimental Context: luciferase reporter, NClH1299 inducible p53 Y220C, 6 hour; read-out: Luc P53 Y220C AC50
Counter-ions that a name gives are not always drawn.
Reported Endpoint: AC50

Compound	Study System	AC50
CNC(=O)c1ccc(NCC#Cc2nc3c(NC4CCN(C)CC4)cc(NC(=O)C(F)Cl)cn3c2CC(F)(F)F)c(OC)c1 (stereo not drawn) [Example 43, formic acid salt]	p53 Y220C (Homo sapiens, UniProt P04637, Y220C)	> 3 µM
CNC(=O)c1ccc(C)c(NCC#Cc2nc3c(N[C@@H]4CCN(C)C[C@@H]4F)cccn3c2SC(F)(F)F)c1	p53 Y220C (Homo sapiens, UniProt P04637, Y220C)	< 0.75 µM

# input for lookup
Q) Specify the recorded AC50 for CNC(=O)c1ccc(NCC#Cc2nc3c(N[C@@H]4CCN(C)CC4(F)F)cccn3c2CC(F)(F)F)c(OC)c1 (single isomer, unassigned) , system: p53 Y220C (Homo sapiens, UniProt P04637, Y220C).
A) > 3 µM
